Reference for the values: PubChem BioAssay AID504832

method.summary: Primary qHTS for delayed death inhibitors of the malarial parasite plastid, 48 hour incubation; note: potency is the fitted concentration of half-maximal effect
measurement.context: P. falciparum luciferase growth in erythrocytes; series mostly up to 28.7 µM
Among all 310,000 compounds or so, about 18,000 (5.8%) were called active. Roughly 22% stayed inconclusive and do not appear here. The sample as a whole holds a higher share of actives than the screen did.

| compound | Potency |
| --- | --- |
| CNC(=O)c1sc(NCc2ccccc2OC)nc1C | inactive |
| CN1C(C(=O)NCc2ccco2)CC2Cn3c(nc4ccccc43)C21 (stereo not given) | inactive |
| CCNC(=O)c1ccc(OCC(=O)Nc2ccc(F)cc2)c(OC)c1 | inactive |
| O=c1c2ccccc2nc(CSc2nnnn2-c2ccccc2)n1-c1ccccc1 | inactive |
| O=C(CCC1CCCCC1)Nc1cc(C(F)(F)F)ccc1N1CCOCC1 | 11.7 µM (active) |
| COc1cc(C(=O)N(C)Cc2cccc(OC)c2OC)ccc1OCC(=O)Nc1cccc(C(F)(F)F)c1 | 11.7 µM (active) |
| CC(=O)NC(Cc1c[nH]c2ccccc12)C(=O)NCCc1ccccc1 (stereo not given) | inactive |
| CC(NC(=O)CNC(=O)Cc1cccc2ccccc12)c1ccc(S(N)(=O)=O)cc1 (stereo not given) | inactive |
| CN1C(=O)[C@H]2[C@@H](C3CC3)N3C(=O)CN(Cc4ccccc4)C(=O)[C@@]3(C)[C@H]2C1=O | inactive |
| CCC(=O)Nc1cc(C(F)(F)F)ccc1N1CCCC1 | inactive |
